Test system: Enterococcus faecium
Known MIC of a selection of compounds
The response must be a number in µM with no trailing unit.

CC(C)C[C@H](NC(=O)[C@H](CC(C)C)NC(=O)CNC(=O)[C@H](CO)NC(=O)[C@H](CC(C)C)NC(=O)[C@@H](NC(=O)[C@H](CCCN=C(N)N)NC(=O)CNC(=O)[C@H](CC(C)C)NC(=O)[C@H](CC(C)C)NC(=O)[C@@H]1CCCN1C(=O)[C@H](CC(C)C)NC(=O)[C@@H](N)Cc1ccccc1)C(C)C)C(N)=O [FLPLLGRVLSGLL] : 5.6
CC[C@H](C)[C@H](NC(=O)[C@H](CC(C)C)NC(=O)[C@H](CCCN=C(N)N)NC(=O)[C@@H](NC(=O)[C@H](C)NC(=O)[C@H](CCCCN)NC(=O)[C@H](CO)NC(=O)[C@H](CC(C)C)NC(=O)[C@@H](N)CCC(=O)O)C(C)C)C(=O)N[C@@H](CCCCN)C(=O)O [ELSKAVRLIK] : 10

Below: the item to evaluate.
Bench note, Enterococcus faecium: CC[C@H](C)[C@H](N)C(=O)N[C@@H](CC(C)C)C(=O)N[C@@H](CCCN=C(N)N)C(=O)N[C@@H](C)C(=O)N[C@@H](Cc1c[nH]c2ccccc12)C(=O)N[C@@H](CCCCN)C(=O)N[C@@H](CCCCN)C(=O)N[C@@H](Cc1ccc(O)cc1)C(=O)NCC(=O)N1CCC[C@H]1C(=O)N[C@H](C(=O)N[C@H](C(=O)N[C@H](C(=O)N1CCC[C@H]1C(=O)N[C@H](C(=O)N[C@H](C(=O)N[C@@H](CCCN=C(N)N)C(=O)N[C@H](C(N)=O)[C@@H](C)CC)[C@@H](C)CC)[C@@H](C)CC)C(C)C)[C@@H](C)CC)[C@@H](C)CC [ILRAWKKYGPIIVPIIRI] , MIC reads 8

----------
Listed below: MIC values for each entry.
Tested on: Staphylococcus epidermidis ATCC 12228
The number alone won't do; follow it with the unit.

Here's what some known entries look like.
CC[C@H](C)[C@H](NC(=O)[C@H](Cc1c[nH]c2ccccc12)NC(=O)[C@H](CCCCN)NC(=O)[C@H](CC(C)C)NC(=O)[C@@H](NC(=O)[C@H](CCCCN)NC(=O)CNC(=O)[C@@H](NC(=O)[C@H](CCCCN)NC(=O)[C@H](CCCCN)NC(=O)[C@H](CC(C)C)NC(=O)[C@@H](N)CCCN=C(N)N)[C@@H](C)CC)C(C)C)C(N)=O : 64 µM
NC(=O)[C@H](Cc1c[nH]c2ccccc12)NC(=O)[C@H](CCCN=C(N)N)NC(=O)[C@H](CS)NC(=O)[C@H](Cc1ccccc1)NC(=O)[C@H](CCCN=C(N)N)NC(=O)[C@H](CCCN=C(N)N)NC(=O)[C@H](CCCN=C(N)N)NC(=O)[C@H](CS)NC(=O)[C@H](CCCN=C(N)N)NC(=O)[C@@H](N)Cc1c[nH]c2ccccc12 : 8 µM

The molecule CC(C)C[C@H](NC(=O)[C@H](CC(C)C)NC(=O)[C@H](Cc1c[nH]c2ccccc12)NC(=O)[C@H](CCCCN)NC(=O)[C@H](CC(C)C)NC(=O)[C@H](CC(C)C)NC(=O)[C@H](Cc1c[nH]c2ccccc12)NC(=O)[C@H](CCCCN)NC(=O)[C@H](CC(C)C)NC(=O)[C@@H](N)CC(C)C)C(=O)N[C@@H](CCCCN)C(N)=O showed MIC equal to 0.894 µM

----------
Tested on: Bacillus subtilis ATCC 23857
Assay: ≥ marks a high value that may be exact or a test limit, other limits are often not marked, values filed in µg/mL are converted to µM
This section presents compounds with their documented MIC values.

Examples from the recorded data:
CC[C@H](C)[C@H](NC(=O)CN)C(=O)N[C@H](C(=O)N[C@@H](C)C(=O)N[C@@H](C)C(=O)N[C@H](C(=O)N[C@H](C(=O)N[C@H](C(=O)N[C@@H](CCCCN)C(=O)N[C@H](C(=O)N[C@@H](CCCCN)C(=O)N[C@@H](CCCCN)C(N)=O)[C@@H](C)CC)[C@@H](C)CC)[C@@H](C)CC)[C@@H](C)CC)[C@@H](C)CC : 16 µM
C[C@H](NC(=O)[C@H](CCCCN)NC(=O)[C@H](Cc1c[nH]c2ccccc12)NC(=O)CNC(=O)CNC(=O)[C@@H]1CCCN1C(=O)[C@H](CCCCN)NC(=O)[C@H](CCCCN)NC(=O)CN)C(=O)N[C@@H](CCCCN)C(N)=O : ≥ 237 µM
CC(C)C[C@H](NC(=O)[C@H](CC(C)C)NC(=O)[C@@H](NC(=O)[C@H](CCCCN)NC(=O)[C@H](Cc1ccccc1)NC(=O)[C@H](CCCN=C(N)N)NC(=O)[C@H](CCCCN)NC(=O)[C@H](CC(C)C)NC(=O)[C@H](CC(C)C)NC(=O)CN)[C@@H](C)O)C(N)=O : ≥ 32 µM
CC[C@H](C)[C@H](NC(=O)CN)C(=O)N[C@@H](C)C(=O)N[C@@H](C)C(=O)NCC(=O)N[C@H](C(=O)N[C@H](C(=O)N[C@H](C(=O)N[C@@H](CCCCN)C(=O)N[C@H](C(=O)N[C@@H](CCCCN)C(=O)N[C@@H](CCCCN)C(N)=O)[C@@H](C)CC)[C@@H](C)CC)[C@@H](C)CC)[C@@H](C)CC : ≥ 32 µM
CC(C)C[C@H](NC(=O)[C@H](CC(C)C)NC(=O)[C@H](CCCCN)NC(=O)[C@H](CCCCN)NC(=O)[C@H](CC(C)C)NC(=O)[C@H](CC(C)C)NC(=O)[C@H](CCCCN)NC(=O)[C@H](CCCCN)NC(=O)[C@H](CC(C)C)NC(=O)[C@@H](N)CC(C)C)C(=O)N[C@@H](CCCCN)C(=O)N[C@@H](CCCCN)C(N)=O : 21.4 µM

What the record says about CC[C@H](C)[C@H](N)C(=O)N[C@@H](CC(=O)O)C(=O)N[C@@H](Cc1c[nH]c2ccccc12)C(=O)N[C@@H](CCCCN)C(=O)N[C@@H](CCCCN)C(=O)N[C@@H](CC(C)C)C(=O)N1CCC[C@H]1C(=O)N[C@@H](CC(=O)O)C(=O)N[C@@H](C)C(=O)N[C@@H](C)C(=O)N[C@@H](CCCCN)C(=O)N[C@@H](CCC(N)=O)C(=O)N[C@H](C(=O)N[C@@H](CC(C)C)C(N)=O)[C@@H](C)CC : MIC is ≥ 512 µM

Notebook: C[C@H](NC(=O)[C@H](CCCCN)NC(=O)[C@H](Cc1c[nH]c2ccccc12)NC(=O)CNC(=O)CNC(=O)[C@H](Cc1c[nH]c2ccccc12)NC(=O)[C@H](CCCCN)NC(=O)[C@H](CCCCN)NC(=O)CN)C(=O)N[C@@H](CCCCN)C(N)=O , MIC read as ≥ 109 µM

Short answer for CC[C@H](C)[C@H](NC(=O)[C@H](C)NC(=O)[C@H](CCCCN)NC(=O)[C@H](C)NC(=O)[C@@H](NC(=O)[C@H](C)NC(=O)[C@H](CC(C)C)NC(=O)[C@H](CC(C)C)NC(=O)[C@H](C)NC(=O)[C@H](CCCCN)NC(=O)[C@H](CC(C)C)NC(=O)[C@H](CC(N)=O)NC(=O)[C@@H](N)CC(C)C)C(C)C)C(=O)N[C@@H](CC(C)C)C(N)=O : MIC was 8 µM

----------
Test system: Bacillus megaterium Bm11
// reported MIC per item
Answer format: numeric, µM implied, no suffix.

Recorded MIC, per entry:
CC(C)C[C@H](NC(=O)[C@H](C)NC(=O)CN)C(=O)N[C@@H](CCCN=C(N)N)C(=O)NCC(=O)N[C@H]1CSSC[C@@H](C(=O)N[C@@H](CCCCN)C(N)=O)NC(=O)[C@@H]2CCCN2C(=O)[C@H](CCCCN)NC(=O)[C@@H]2CCCN2C(=O)[C@@H]2CCCN2C(=O)[C@H](Cc2ccc(O)cc2)NC(=O)[C@H](CO)NC(=O)[C@H](CCCCN)NC(=O)[C@H]([C@@H](C)O)NC(=O)[C@H](Cc2c[nH]c3ccccc23)NC1=O : 3
CC[C@H](C)[C@H](NC(=O)CNC(=O)[C@H](CO)NC(=O)[C@H](CC(C)C)NC(=O)[C@@H](NC(=O)[C@H](CCCN=C(N)N)NC(=O)CNC(=O)[C@H](C)NC(=O)[C@H](CC(C)C)NC(=O)[C@@H]1CCCN1C(=O)[C@H](CC(C)C)NC(=O)[C@@H](N)Cc1ccccc1)C(C)C)C(=O)N[C@@H](CC(C)C)C(N)=O : 20
CC[C@H](C)[C@H](NC(=O)[C@H](CCCN=C(N)N)NC(=O)CNC(=O)[C@H](CC(C)C)NC(=O)[C@H](Cc1ccccc1)NC(=O)[C@H](CCCCN)NC(=O)[C@H](CO)NC(=O)[C@H](Cc1ccccc1)NC(=O)[C@H](Cc1c[nH]c2ccccc12)NC(=O)[C@H](CCCN=C(N)N)NC(=O)[C@@H](NC(=O)[C@@H](N)Cc1ccccc1)C(C)C)C(=O)N[C@@H](CC(C)C)C(N)=O : 3
CC[C@H](C)[C@H](NC(=O)CN)C(=O)N[C@@H](CC(C)C)C(=O)N[C@@H](CO)C(=O)N[C@@H](CCCCN)C(=O)N[C@@H](CC(C)C)C(=O)NCC(=O)N[C@@H](CCCCN)C(=O)N[C@@H](C)C(=O)N[C@@H](CC(C)C)C(=O)N[C@@H](CCCCN)C(=O)N[C@@H](CCCCN)C(=O)N[C@@H](C)C(=O)N[C@@H](C)C(=O)N[C@@H](CCCCN)C(=O)N[C@@H](Cc1cnc[nH]1)C(=O)N[C@@H](C)C(=O)N[C@@H](C)C(=O)N[C@@H](CCCCN)C(=O)N[C@@H](C)C=O : 4

# input for lookup
// assay Bacillus megaterium Bm11, entry CC[C@H](C)[C@H](NC(=O)[C@@H](NC(=O)[C@H](CCCN=C(N)N)NC(=O)[C@H](C)NC(=O)[C@H](CC(C)C)NC(=O)[C@H](CCCCN)NC(=O)[C@H](CCCN=C(N)N)NC(=O)[C@H](C)NC(=O)[C@H](CC(C)C)NC(=O)[C@H](CCCN=C(N)N)NC(=O)CNC(=O)[C@H](Cc1ccccc1)NC(=O)[C@H](CCCCN)NC(=O)[C@H](CO)NC(=O)[C@H](CC(C)C)NC(=O)[C@H](CC(C)C)NC(=O)CN)C(C)C)C(=O)N1CCC[C@H]1C(=O)N[C@@H](CCCCN)C(=O)N[C@H](C(N)=O)C(C)C , MIC value = 2
